Tested on: SK-MEL-5 DCT mRNA qPCR, delta-delta-Ct, overnight
Experiment: suppression of MITF target gene DCT mRNA, dose response, orthogonal assay for MITF inhibitor project, cell-based, SK-MEL-5, RT-qPCR, dry powder samples (AID 651771)
Results filed as inconclusive are left out.
Parameter AC40: see the listing below.

Molecule: COc1ccc(NC2=C(N3CCCCC3)C(=O)c3ccccc3C2=O)cc1
AC40: 12.8 µM

Molecule: CCN1CCN(C2=C(NS(=O)(=O)c3ccc(Br)cc3)C(=O)c3ccccc3C2=O)CC1
AC40: 3.38 µM

Molecule: O=C1C=C(NS(=O)(=O)c2ccc(Br)cc2)C(=O)c2ccccc21
AC40: 7.25 µM

Molecule: O=C1C(Nc2ccccc2)=C(c2ccccc2)C(=O)c2ccccc21
AC40: 10.4 µM

Molecule: NC1=C(NS(=O)(=O)c2ccccc2)C(=O)c2ccccc2C1=O
AC40: 3.02 µM

// data source = PubChem BioAssay AID651771
